Target: T1, DFNB31_1, Q9P202
T1 sequence (Q9P202 135-233, limits assumed, looked up): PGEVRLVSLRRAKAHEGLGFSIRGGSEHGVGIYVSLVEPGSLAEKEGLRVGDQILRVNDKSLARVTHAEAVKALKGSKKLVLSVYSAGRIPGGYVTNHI
Test: holdup assay
Set-up: key: below the threshold = too weak to quantify, mostly under pKd 3.1 to 4
Conditions: plain residues with an end cap or a label only (N-terminal biotin on a linker: ado-ado)
experimental_readout: pKd

INSERT INTO measurements (binder, result) VALUES
  ('SKSNFGSEPL [KIF17, Q9P2E2]', 'below the threshold'),
  ('LRSPRTPSEV [OR10G3, Q8NGC4]', 'below the threshold'),
  ('YYKRPVQEWV [MMP24, Q9Y5R2]', 'below the threshold'),
  ('GNSVLKSTQF [SLC22A12, Q96S37]', 3.6);
